// provenance: patent US4792563A

Assignment: determine reported mortality at 500 ppm for the given molecules.
# Tested on: Diabrotica balteata (rootworm larvae)
# procedure.details: insecticidal mortality test, residual, filter paper/maize seed
# Type: in vivo
# experimental.parameters: 72 h, 3 days, read-out: grading of mortality, DB

The molecule listed as "CC(C)(CF)COCc1ccc(F)c(Oc2ccccc2)c1" has a reported mortality at 500 ppm of 80 to 100%

mortality at 500 ppm in this record for "CC(C)(COCc1ccc(F)c(Cc2ccccc2)c1)C(F)F" : 80 to 100%

The reported mortality at 500 ppm of the molecule "Fc1ccc(COCC2(C(F)F)CCCC2)cc1Oc1ccccc1" was 80 to 100%

Form field mortality at 500 ppm, entry "CC(C)(COCc1ccc(F)c(Oc2ccccc2)c1)C(F)F" : 80 to 100%

response.value for "CC(C)(COCc1ccc(F)c(Nc2ccccc2)c1)C(F)F" (field: mortality at 500 ppm) = 80 to 100%

Memo: "CC(C)(CF)COCc1cccc(Oc2ccccc2)c1" , reported mortality at 500 ppm: 80 to 100%

mortality at 500 ppm reported for this molecule "CC(C)(COCc1cccc(Oc2ccccc2)n1)C(F)F" : 80 to 100%

Entry under test: CCC(C)(COCc1cccc(Oc2ccccc2)c1)C(F)F (racemic) . Its mortality at 500 ppm was 80 to 100%

According to the records, this molecule "CC(C)(COCc1cccc(Oc2ccccc2)c1)C(F)F" displays mortality at 500 ppm of 80 to 100%

* * *

# System: Heliothis virescens (tobacco budworm - larvae)
# procedure.details: whole plant or invertebrate
# Format: in vivo
# experimental.parameters: in Gossypium hirsutum, 72 h, read-out: grading of mortality, HV
assay.endpoint: mortality at 500 ppm

Looking up "CC(C)(COCc1ccc(F)c(Nc2ccccc2)c1)C(F)F" , I found its mortality at 500 ppm recorded as 80 to 100%

Measured mortality at 500 ppm, "CC(C)(CF)COCc1ccc(F)c(Oc2ccccc2)c1" : 80 to 100%

Lab book: mortality at 500 ppm of "CC(C)(COCc1cccc(Oc2ccccc2)n1)C(F)F" noted as < 50%

Field mortality at 500 ppm (entry "CC(C)(CF)COCc1cccc(Oc2ccccc2)c1" ) reads 50 to 79%

Looking up "CC(C)(COCc1cccc(Oc2ccccc2)c1)C(F)F" , I see its mortality at 500 ppm listed as < 50%

GET /value?item= "Fc1ccc(COCC2(C(F)F)CCCC2)cc1Oc1ccccc1" &field=mortality at 500 ppm returns 50 to 79%

Input "CC(C)(COCc1ccc(F)c(Cc2ccccc2)c1)C(F)F" . Output mortality at 500 ppm: < 50%

Looking up "CC(C)(COCc1ccc(F)c(Oc2ccccc2)c1)C(F)F" , I found its mortality at 500 ppm recorded as 80 to 100%

For reference, reported mortality at 500 ppm for CCC(C)(COCc1cccc(Oc2ccccc2)c1)C(F)F (racemic) stands at < 50%

* * *

# System: Myzus persicae (aphids)
# procedure.details: insecticidal mortality test, contact, Chinese cabbage leaf
# Format: in vivo
# experimental.parameters: 72 h, 3 days, read-out: grading of mortality, MP
assay.endpoint: mortality at 500 ppm

The recorded mortality at 500 ppm for CC(C)(COCc1ccc(F)c(Nc2ccccc2)c1)C(F)F [Compound 6] is 80 to 100%

According to the records, this compound CC(C)(COCc1ccc(F)c(Cc2ccccc2)c1)C(F)F [Compound 4] displays mortality at 500 ppm of < 50%

// recorded mortality at 500 ppm for CC(C)(CF)COCc1ccc(F)c(Oc2ccccc2)c1 [Compound 7] : < 50%

Notebook: CC(C)(COCc1cccc(Oc2ccccc2)c1)C(F)F [Compound 2] , mortality at 500 ppm read as < 50%

// mortality at 500 ppm lookup, compound = Fc1ccc(COCC2(C(F)F)CCCC2)cc1Oc1ccccc1 [Compound 21] , result: < 50%

The compound listed as CC(C)(CF)COCc1cccc(Oc2ccccc2)c1 [Compound 8] has a reported mortality at 500 ppm of < 50%

response.value for CCC(C)(COCc1cccc(Oc2ccccc2)c1)C(F)F (racemic) [Compound 3] (field: mortality at 500 ppm) = < 50%

response.value for CC(C)(COCc1cccc(Oc2ccccc2)n1)C(F)F [Compound 5] (field: mortality at 500 ppm) = 50 to 79%

mortality at 500 ppm measured on CC(C)(COCc1ccc(F)c(Oc2ccccc2)c1)C(F)F [Compound 1] = < 50%
